Catalogue of viability at 48 h readings, one per entry.
Test: MTT cytotoxicity test on NIH-3T3 cells
Format: cell-based, Mouse
Details: mouse, NIH/3T3 fibroblast cells

Input smiles: NC(=S)N[N-][CH+]c1ccc([N+](=O)[O-])cc1
Measure name: viability at 48 h
Result: > 80%

// next entry
INPUT: Consider the compound `COc1cccc(C=NNC(N)=S)c1` . State its measured viability at 48 h.
OUTPUT: > 80%

###

Experiment: MTT cytotoxicity test on MCF-10A cells
Type: cell-based, Human
Details: human, MCF-10A breast epithelial cells
Protocol: The in vitro anticancer activities of the synthesized compounds were conducted using different cancerous and non-cancerous cell lines viz B16-F0 (Mouse melanoma), mouse Ehrlich Ascites Carcinoma (EAC), MCF-7 (Human breast cancer), MCF-10A (Human breast epithelial cells), and NIH/3T3 (Mouse fibroblast cells). All cell lines were procured from the National Centre for Cell Science, Pune, India. […]
Measure name: viability at 48 h

INPUT: Consider the compound `NC(=S)N[N-][CH+]c1ccc([N+](=O)[O-])cc1` . State its measured viability at 48 h.
OUTPUT: > 80%

INPUT: Consider the compound `COc1cccc(C=NNC(N)=S)c1` . State its measured viability at 48 h.
OUTPUT: > 80%
